- System tested: Muscarinic acetylcholine receptor M5 (Homo sapiens, UniProt P08912)
- Sequence (P08912 whole entry): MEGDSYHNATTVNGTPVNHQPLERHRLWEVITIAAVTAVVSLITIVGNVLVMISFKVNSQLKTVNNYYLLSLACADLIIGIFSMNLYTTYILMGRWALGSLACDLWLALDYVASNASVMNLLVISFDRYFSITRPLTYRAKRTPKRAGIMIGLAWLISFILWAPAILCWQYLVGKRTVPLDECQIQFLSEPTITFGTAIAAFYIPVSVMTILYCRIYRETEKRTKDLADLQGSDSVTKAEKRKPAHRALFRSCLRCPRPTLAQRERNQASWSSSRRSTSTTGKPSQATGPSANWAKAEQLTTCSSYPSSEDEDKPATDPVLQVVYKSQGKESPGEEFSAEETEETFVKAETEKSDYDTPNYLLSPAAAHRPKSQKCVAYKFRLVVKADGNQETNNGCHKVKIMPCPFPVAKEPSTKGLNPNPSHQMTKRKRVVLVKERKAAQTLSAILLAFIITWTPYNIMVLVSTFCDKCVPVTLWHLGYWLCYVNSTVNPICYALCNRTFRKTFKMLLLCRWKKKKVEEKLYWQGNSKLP
Property: Ki (nM)
Answers are plain numbers, in nM.

Prompt: Which measured Ki belongs to O=c1ccc2c([C@@H](O)CNCCc3ccc(CCN4CCC(Cn5cnc([C@](O)(c6ccccc6)C6CCCCC6)n5)CC4)cc3)ccc(O)c2[nH]1 , tested on Muscarinic acetylcholine receptor M5 (Homo sapiens, UniProt P08912)?
Response: 1.1

====

- Test method notes: Oral bioavailability in rat at 2 mg/kg
- Type: ADME, organism-based
- Applied conditions: in vivo
Property: bioavailability

Prompt: Name the recorded bioavailability for O=c1ccc2c([C@@H](O)CNCCc3ccc(CCN4CCC(Cn5cnc([C@](O)(c6ccccc6)C6CCCCC6)n5)CC4)cc3)ccc(O)c2[nH]1 .
Response: < 5%

====

- Test method notes: Plasma clearance in dog
- Type: ADME, organism-based, Canis lupus familiaris
Property: clearance (mL/min/kg)
Answers are plain numbers, in mL/min/kg.

Prompt: Which measured clearance value corresponds to O=c1ccc2c([C@@H](O)CNCCc3ccc(CCN4CCC(Cn5cnc([C@](O)(c6ccccc6)C6CCCCC6)n5)CC4)cc3)ccc(O)c2[nH]1 ?
Response: 11

====

- System tested: Beta-2 adrenergic receptor (Homo sapiens)
- Sequence (P07550 whole entry, looked up): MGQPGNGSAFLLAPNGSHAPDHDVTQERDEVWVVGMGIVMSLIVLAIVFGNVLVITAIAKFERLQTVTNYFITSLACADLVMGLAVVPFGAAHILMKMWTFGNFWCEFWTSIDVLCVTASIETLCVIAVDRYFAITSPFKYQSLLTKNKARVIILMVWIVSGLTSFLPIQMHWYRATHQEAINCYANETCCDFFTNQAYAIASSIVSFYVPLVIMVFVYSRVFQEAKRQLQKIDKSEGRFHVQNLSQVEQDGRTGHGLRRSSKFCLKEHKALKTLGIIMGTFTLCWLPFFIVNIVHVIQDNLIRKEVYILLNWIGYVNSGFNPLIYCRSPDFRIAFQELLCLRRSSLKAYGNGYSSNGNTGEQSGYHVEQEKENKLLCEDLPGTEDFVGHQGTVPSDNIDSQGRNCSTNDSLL
- Test method notes: Ratio of EC50 for human beta2 adrenoceptor with wash treatment to EC50 for human beta2 adrenoceptor without wash treatment
Property: Ratio EC50
One number for each entry.

Example cases with answers are listed next.
{"columns": ["Compound", "Ratio EC50"],
 "data": [
  ["O=c1ccc2c([C@@H](O)CNCCCCCCCCCN3CCC(Cn4cnc(C(O)(c5ccccc5)c5ccccc5)n4)CC3)ccc(O)c2[nH]1", 3.5],
  ["O=C(Nc1ccccc1-c1ccc(O)c(Cl)c1)OC1CCN(CCCCCCCCCNC[C@H](O)c2ccc(O)c3[nH]c(=O)ccc23)CC1", 1.5],
  ["O=c1ccc2c([C@@H](O)CNCCCCCCCCCN3CCC(Cn4cnc([C@](O)(c5ccccc5)C5CCCCC5)n4)CC3)ccc(O)c2[nH]1", 1.2]
]}

# per-item lookup of Ratio EC50; items listed below
1. O=c1ccc2c([C@@H](O)CNCCCCCCCCCN3CCC(Cn4cnc(C(O)(c5ccccc5)C5CCCCC5)n4)CC3)ccc(O)c2[nH]1 (stereo partly specified)
2. O=c1ccc2c([C@@H](O)CNCCc3ccc(CCN4CCC(Cn5cnc(C(O)(c6ccccc6)c6ccccc6)n5)CC4)cc3)ccc(O)c2[nH]1
3. CC(C)N(CC[C@H](c1ccccc1)c1cc(CCCCOc2ccc(CCNC[C@H](O)c3ccc(O)c4[nH]c(=O)ccc34)cc2)ccc1O)C(C)C

Response:
1. 1.5
2. 6.4
3. 1.1
